Sourced from ChEMBL document CHEMBL1133553

Molecular target: Sodium-dependent serotonin transporter (Rattus norvegicus, UniProt P31652)
Sequence (P31652 whole entry): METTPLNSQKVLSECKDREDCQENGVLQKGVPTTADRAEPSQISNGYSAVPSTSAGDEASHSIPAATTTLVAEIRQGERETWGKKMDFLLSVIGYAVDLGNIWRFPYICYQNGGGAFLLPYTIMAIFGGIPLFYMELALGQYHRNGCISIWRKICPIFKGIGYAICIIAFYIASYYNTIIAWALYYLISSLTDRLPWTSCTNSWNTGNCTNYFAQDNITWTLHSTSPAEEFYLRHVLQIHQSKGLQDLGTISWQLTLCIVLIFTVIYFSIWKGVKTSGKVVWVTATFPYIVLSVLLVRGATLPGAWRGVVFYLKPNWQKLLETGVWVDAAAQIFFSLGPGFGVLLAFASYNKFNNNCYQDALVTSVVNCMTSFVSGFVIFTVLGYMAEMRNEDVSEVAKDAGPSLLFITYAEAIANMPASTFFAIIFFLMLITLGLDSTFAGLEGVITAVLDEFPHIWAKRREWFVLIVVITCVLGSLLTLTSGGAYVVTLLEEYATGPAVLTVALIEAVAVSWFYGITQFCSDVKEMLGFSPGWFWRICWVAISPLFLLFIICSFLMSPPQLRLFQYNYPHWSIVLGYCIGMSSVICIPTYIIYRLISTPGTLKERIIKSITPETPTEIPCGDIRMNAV
Assay: Binding affinity for rat 5-hydroxytryptamine transporter.
pIC50: −log10 of the molar value.
Outcome: 1.0 for pIC50 of at least 6; 0.0 for anything lower.

Answered examples (2):
[
  {
    "COMPOUND": "Fc1ccc(C(OCCN2CC3CCC(C2)N3C/C=C/c2ccco2)c2ccc(F)cc2)cc1",
    "ASSIGNED_LABEL": 1.0
  },
  {
    "COMPOUND": "CN1CC2CC1CN2CCOC(c1ccccc1)c1ccccc1 (stereo not given)",
    "ASSIGNED_LABEL": 0.0
  }
]

Query block: For this compound, is measured pIC50 6 or higher? CN1C2CCC1CN(CCOC(c1ccccc1)c1ccccc1)CC2 (stereo not given)
Result block: 0.0

Query block: Given Fc1ccc(C(OCCN2CC3CCC(C2)N3CCCc2ccccc2)c2ccc(F)cc2)cc1 , state whether its pIC50 is at least 6.
Result block: 1.0

Query block: Reported pIC50 reaches at least 6 for CN1C2CCC1CN(CCOC(c1ccccc1)c1ccccc1)C2 ?
Result block: 0.0

Query block: Decide: pIC50 of CN1C2CCC1CN(CCOC(c1ccc(F)cc1)c1ccc(F)cc1)CC2 (stereo not given) >= 6?
Result block: 0.0

Query block: Assess whether reported pIC50 for Fc1ccc(C(OCCN2CC3CC2CN3CCCc2ccccc2)c2ccc(F)cc2)cc1 (stereo not given) sits at 6 or higher.
Result block: 1.0

###

Some compounds, each annotated with its measured pIC50.
Target: Sodium-dependent dopamine transporter (Rattus norvegicus, UniProt P23977)
Sequence (P23977 whole entry): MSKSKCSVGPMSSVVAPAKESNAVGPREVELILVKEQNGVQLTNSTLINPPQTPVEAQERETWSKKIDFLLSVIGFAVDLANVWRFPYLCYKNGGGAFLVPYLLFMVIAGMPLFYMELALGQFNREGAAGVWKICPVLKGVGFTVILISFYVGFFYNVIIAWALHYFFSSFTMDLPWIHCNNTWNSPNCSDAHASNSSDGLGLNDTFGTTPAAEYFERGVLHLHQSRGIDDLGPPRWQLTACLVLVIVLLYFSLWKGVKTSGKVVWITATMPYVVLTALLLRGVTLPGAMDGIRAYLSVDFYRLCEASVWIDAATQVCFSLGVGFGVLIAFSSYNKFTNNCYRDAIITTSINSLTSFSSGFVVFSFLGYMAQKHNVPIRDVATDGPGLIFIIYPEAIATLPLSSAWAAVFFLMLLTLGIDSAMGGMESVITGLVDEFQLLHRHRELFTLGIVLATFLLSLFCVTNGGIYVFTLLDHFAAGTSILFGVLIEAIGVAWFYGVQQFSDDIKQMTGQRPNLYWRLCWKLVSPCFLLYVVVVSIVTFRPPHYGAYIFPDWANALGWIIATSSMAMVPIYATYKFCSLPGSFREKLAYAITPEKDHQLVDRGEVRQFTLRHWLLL
Assay: Binding affinity for rat Dopamine transporter.
Please treat pIC50 as minus the base-10 logarithm of the molar concentration.

[
  {
    "COMPOUND": "CN1C2CCC1CN(CCOC(c1ccc(F)cc1)c1ccc(F)cc1)C2",
    "SUBJECT_OF_TEST": "Sodium-dependent dopamine transporter (Rattus norvegicus, UniProt P23977)",
    "REPORTED_RESULT": 8.10
  },
  {
    "COMPOUND": "Fc1ccc(C(OCCN2CC3CCC(C2)N3CCCc2ccccc2)c2ccc(F)cc2)cc1",
    "SUBJECT_OF_TEST": "Sodium-dependent dopamine transporter (Rattus norvegicus, UniProt P23977)",
    "REPORTED_RESULT": 8.09
  },
  {
    "COMPOUND": "Fc1ccc(C(OCCN2CCC3CCC(C2)N3CCCc2ccccc2)c2ccc(F)cc2)cc1 (stereo not given)",
    "SUBJECT_OF_TEST": "Sodium-dependent dopamine transporter (Rattus norvegicus, UniProt P23977)",
    "REPORTED_RESULT": 6.89
  },
  {
    "COMPOUND": "Fc1ccc(C(OCCN2CC3CCC(C2)N3C/C=C/c2cccs2)c2ccc(F)cc2)cc1",
    "SUBJECT_OF_TEST": "Sodium-dependent dopamine transporter (Rattus norvegicus, UniProt P23977)",
    "REPORTED_RESULT": 8.40
  },
  {
    "COMPOUND": "c1ccc(CCCN2C3CCC2CN(CCOC(c2ccccc2)c2ccccc2)CC3)cc1 (stereo not given)",
    "SUBJECT_OF_TEST": "Sodium-dependent dopamine transporter (Rattus norvegicus, UniProt P23977)",
    "REPORTED_RESULT": 7.49
  }
]

Query block: // pIC50 lookup, key: c1ccc(CCCN2C3CCC2CN(CCOC(c2ccccc2)c2ccccc2)C3)cc1
Result block: 7.74

Query block: # input compound: CN1CC2CC1CN2CCOC(c1ccc(F)cc1)c1ccc(F)cc1 (stereo not given) ; wanted: its pIC50
Result block: 6.92

Query block: Query: pIC50; subject: CN1C2CCC1CN(CCOC(c1ccccc1)c1ccccc1)C2
Result block: 6.95

Query block: Please look up its pIC50: Fc1ccc(C(OCCN2CC3CCC(C2)N3C/C=C/c2cccnc2)c2ccc(F)cc2)cc1
Result block: 7.92

Query block: Field request: pIC50 | item: CN1C2CCC1CN(CCOC(c1ccc(F)cc1)c1ccc(F)cc1)CC2 (stereo not given)
Result block: 7.05
